target: human TRPA1 (Homo sapiens, UniProt O75762); assay: cell-based; conditions: read-out: Activity (IC50)
Sequence (O75762 whole entry): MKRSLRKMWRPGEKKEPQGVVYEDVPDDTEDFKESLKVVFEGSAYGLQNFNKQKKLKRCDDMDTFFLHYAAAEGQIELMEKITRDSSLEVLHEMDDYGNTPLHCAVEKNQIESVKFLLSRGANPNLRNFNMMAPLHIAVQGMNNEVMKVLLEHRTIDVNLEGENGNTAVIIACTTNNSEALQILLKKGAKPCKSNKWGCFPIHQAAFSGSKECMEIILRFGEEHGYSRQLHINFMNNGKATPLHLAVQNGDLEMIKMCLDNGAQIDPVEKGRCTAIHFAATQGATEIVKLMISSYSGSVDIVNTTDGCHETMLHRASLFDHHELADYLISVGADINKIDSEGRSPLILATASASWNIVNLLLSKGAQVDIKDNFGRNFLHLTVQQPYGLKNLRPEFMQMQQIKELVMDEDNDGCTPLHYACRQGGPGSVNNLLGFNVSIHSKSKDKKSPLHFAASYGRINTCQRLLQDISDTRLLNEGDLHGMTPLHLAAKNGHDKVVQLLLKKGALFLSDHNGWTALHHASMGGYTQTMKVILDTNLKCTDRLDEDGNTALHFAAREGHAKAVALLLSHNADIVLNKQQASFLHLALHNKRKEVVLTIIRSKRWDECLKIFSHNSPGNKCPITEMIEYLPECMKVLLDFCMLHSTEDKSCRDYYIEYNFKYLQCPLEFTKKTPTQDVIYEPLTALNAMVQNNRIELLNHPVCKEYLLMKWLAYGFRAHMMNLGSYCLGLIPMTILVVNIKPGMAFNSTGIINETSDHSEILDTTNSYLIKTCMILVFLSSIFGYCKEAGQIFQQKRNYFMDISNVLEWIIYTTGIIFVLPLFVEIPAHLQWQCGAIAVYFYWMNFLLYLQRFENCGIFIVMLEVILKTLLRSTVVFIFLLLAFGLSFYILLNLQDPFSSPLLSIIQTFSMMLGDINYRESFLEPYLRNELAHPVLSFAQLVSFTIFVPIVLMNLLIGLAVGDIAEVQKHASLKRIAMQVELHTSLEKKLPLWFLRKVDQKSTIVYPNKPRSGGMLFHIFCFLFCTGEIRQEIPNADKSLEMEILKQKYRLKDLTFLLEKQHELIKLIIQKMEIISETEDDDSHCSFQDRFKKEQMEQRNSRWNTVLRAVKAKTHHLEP
pIC50: −log10 of the molar value.
Listing of recorded pIC50 by entry.

Worked examples follow.
CN1C(=S)NC2=C(C(=O)c3ccccc32)C1c1cccc(C#N)c1 (stereo not drawn): < 6.00
COc1cccc(C2NC(=O)N(CCN(C)C)C3=C2C(=O)c2ccccc23)c1 (stereo not drawn): < 6.00

Exercise: Request the reported pIC50 associated with O=C1NC2=C(C(=O)c3cc(Cl)ccc32)C(c2cc(O)ccc2Br)N1 (stereo not drawn)
Solution: < 6.00

Exercise: Which value of pIC50 has been reported for CN1C(=S)N(C)C(c2ccccc2)C2=C1c1ccccc1C2=O (stereo not drawn) in the records?
Solution: < 6.00

Exercise: I'd like to know its pIC50. The compound in question is CCCOc1cccc(C2NC(=O)NC3=C2C(=O)c2cccnc23)c1 (stereo not drawn)
Solution: > 7.00

Exercise: # lookup: pIC50 of CCOc1ccc(F)c(C2NC(=O)NC3=C2C(=O)c2ccccc23)c1F (stereo not drawn)
Solution: 6.30 to 7.00

Exercise: Can you share its pIC50? I mean this compound: CCC[S+]([O-])c1cccc(C2NC(=O)NC3=C2C(=O)c2cccnc23)c1 (stereo not drawn)
Solution: < 6.00

Exercise: // query pIC50 value for entry CCOc1cccc(C2NC(=O)N(CC(F)(F)F)C3=C2C(=O)c2ccccc23)c1 (stereo not drawn)
Solution: 6.00 to 6.30

Exercise: Fill in the blank: the reported pIC50 of C=CCOc1ccc(F)c(C2NC(=O)NC3=C2C(=O)c2ccccc23)c1 (stereo not drawn) is ____.
Solution: 6.30 to 7.00

Exercise: Dear colleague, I am looking for the recorded pIC50 of the following compound: O=C1NC2=C(C(=O)c3ccccc32)C(c2ccc(Cl)cc2)N1 (stereo not drawn)
Solution: < 6.00

Exercise: Entry CN1C(=NC#N)NC2=C(C(=O)c3ccccc32)C1c1cccc(OCC2CC2)c1 (stereo not drawn) has what pIC50?
Solution: < 6.00

Exercise: Fill blank: measured pIC50 of the compound O=C1NC2=C(C(=O)c3ccccc32)C(c2cccc(Cl)c2Cl)N1 (stereo not drawn) is ____.
Solution: < 6.00

Exercise: Request the reported pIC50 associated with O=C1C2=C(NC(=S)NC2c2ccccc2)c2ccccc21 (stereo not drawn)
Solution: > 7.00

Exercise: Which pIC50 value is on record for COc1cccc(C2NC(=O)N(CCO)C3=C2C(=O)c2ccccc23)c1 (stereo not drawn) ?
Solution: < 6.00

Exercise: Look up pIC50: CCCSc1cccc(C2NC(=O)NC3=C2C(=O)c2cccnc23)c1 (stereo not drawn)
Solution: 6.30 to 7.00

Exercise: Requested read-out: pIC50. Entry: CCCC(=O)c1cccc(C2NC(=O)NC3=C2C(=O)c2cccnc23)c1 (stereo not drawn)
Solution: 6.30 to 7.00

---

Catalogue of IC50 values
molecular target: human TRPA1 (Homo sapiens, UniProt O75762); test: cell-based; details: read-out: Activity (IC50)

Use these answered entries as a reference point.
COc1cccc(C2NC(=O)N(C)C3=C2C(=O)c2ccccc23)c1 (stereo not drawn): 100 to 500 nM
O=C1NC2=C(C(=O)c3ccccc32)C(c2c(Cl)cccc2Cl)N1 (stereo not drawn): > 1000 nM
C=CCOc1ccc(Cl)c(C2NC(=O)N(C)C3=C2C(=O)c2ccccc23)c1 (stereo not drawn): < 100 nM
CN1C(=S)NC(c2cccc(C#N)c2)C2=C1c1ccccc1C2=O (stereo not drawn): < 100 nM
CCOc1cccc(C2NC(=O)N(Cc3cccnc3)C3=C2C(=O)c2ccccc23)c1 (stereo not drawn): 100 to 500 nM
COc1cc(OC)cc(C2NC(=O)NC3=C2C(=O)c2ccccc23)c1 (stereo not drawn): > 1000 nM

Exercise: I am curious: what IC50 value has been reported for CCCOc1cccc(C2NC(=O)N(Cc3ccccc3)C3=C2C(=O)c2ccccc23)c1 (stereo not drawn) ?
Solution: < 100 nM

Exercise: # lookup: IC50 of O=C1NC2=C(C(=O)c3ccccc32)C(c2cccc(C(F)(F)F)c2)N1 (stereo not drawn)
Solution: > 1000 nM

Exercise: What IC50 value was documented for this molecule, C=CCOc1ccc(Cl)c(C2NC(=O)NC3=C2C(=O)c2ccccc23)c1 (stereo not drawn) [Compound 637] ?
Solution: 100 to 500 nM

---

target: human TRPA1 (Homo sapiens, UniProt O75762); assay: cell-based
pIC50: −log10 of the molar value.
pIC50 by entry:

# count of solved cases: 5
N#Cc1ccc(C2NC(=S)NC3=C2C(=O)c2ccccc23)cc1 (stereo not shown): 6.00 to 6.30
O=C1C2=C(NC(=S)NC2c2ccccc2)c2ccccc21 (stereo not shown): > 7.00
COc1cccc(C2NC(=O)NC3=C2C(=O)c2ccccc23)c1 (stereo not shown): 6.00 to 6.30
O=C1C2=C(NC(=S)NC2c2ccccc2)c2ccc(O)cc21 (stereo not shown): < 6.00
COc1ccccc1C1NC(=S)NC2=C1C(=O)c1ccccc12 (stereo not shown): < 6.00

Exercise: Which measured pIC50 value corresponds to O=C1C2=C(NC(=S)NC2c2ccccc2O)c2ccccc21 (stereo not shown) ?
Solution: > 7.00

Exercise: What measured pIC50 goes with O=C1C2=C(NC(=S)NC2c2cccnc2)c2ccccc21 (stereo not shown) ?
Solution: 6.00 to 6.30

---

# pIC50 per entry
target: human TRPA1 (Homo sapiens); test: cell-based; details: read-out: Activity (IC50)
pIC50: −log10 of the molar value.

Before answering, review these 10 worked examples.
CCN(C(C)=O)c1cccc(C2NC(=O)NC3=C2C(=O)c2ccccc23)c1 (stereo not shown) [Compound 443]: < 6.00
C=CCOc1cccc(C2NC(=NC#N)NC3=C2C(=O)c2ccccc23)c1 (stereo not shown) [Compound 950]: < 6.00
CCOC(=O)CN1C(=O)NC(c2cccc(OCC)c2)C2=C1c1ccccc1C2=O (stereo not shown) [Compound 608]: > 7.00
CCOc1cccc(C2NC(=O)N(Cc3ccncc3)C3=C2C(=O)c2ccccc23)c1 (stereo not shown) [Compound 613]: < 6.00
O=C1NC2=C(C(=O)c3ccccc32)C(c2cc(C(F)(F)F)ccc2Cl)N1 (stereo not shown) [Compound 448]: < 6.00
CCOc1cccc(C2NC(=O)NC3=C2C(=O)c2cccnc23)c1 (stereo not shown) [Compound 902]: 6.30 to 7.00
O=C1NC2=C(C(=O)c3ccccc32)C(c2cccc(OC(F)(F)C(F)F)c2)N1 (stereo not shown) [Compound 451]: < 6.00
N#CCN1C(=O)NC(c2cccc(OC(F)F)c2)C2=C1c1ccccc1C2=O (stereo not shown) [Compound 618]: > 7.00
CN(C)c1cccc(C2NC(=O)NC3=C2C(=O)c2ccccc23)c1 (stereo not shown) [Compound 445]: < 6.00
C=CCOc1cccc(C2NC(=O)NC3=C2C(=O)c2ccccc23)c1Cl (stereo not shown) [Compound 411]: > 7.00

Exercise: Please give the measured pIC50 for this compound: CCCOc1ccc(F)c(C2NC(=O)N(CC#N)C3=C2C(=O)c2ccccc23)c1F (stereo not shown) [Compound 648]
Solution: > 7.00

Exercise: Data request, read-out pIC50, for O=C1NC2=C(C(=O)c3ccccc32)C(c2cccc(O)c2)N1 (stereo not shown) [Compound 436]
Solution: < 6.00

Exercise: Would you mind telling me what pIC50 value was observed for C=CCOc1cccc(C2NC(=O)NC3=C2C(=O)c2ccccc23)c1 (stereo not shown) [Compound 405] ?
Solution: > 7.00

Exercise: Name the recorded pIC50 for O=C1NC2=C(C(=O)c3ccccc32)C(c2cccc3c2OC(F)(F)O3)N1 (stereo not shown) [Compound 440] .
Solution: < 6.00

Exercise: Item CC(C)COc1cccc(C2NC(=NC#N)NC3=C2C(=O)c2ccccc23)c1 (stereo not shown) [Compound 959] has what recorded pIC50?
Solution: < 6.00

Exercise: Give the measured pIC50 of CCCOc1cccc(C2NC(=O)N(CC)C3=C2C(=O)c2ccccc23)c1 (stereo not shown) [Compound 646] .
Solution: > 7.00

---

Listed next: entries and their corresponding IC50.
biological target: human TRPA1 (Homo sapiens, UniProt O75762); experiment: cell-based; conditions: read-out: Activity (IC50)

O=C1C2=C(c3ccccc31)N(Cc1ccccc1)C(=O)NC2c1cccc(OC(F)F)c1 (stereo not shown) [Compound 620]: < 100 nM
C=CC(F)(F)Oc1cccc(C2NC(=O)N(Cc3ccccc3)C3=C2C(=O)c2ccccc23)c1 (stereo not shown) [Compound 649]: > 1000 nM
CCOc1cccc(C2NC(=O)N(CC#N)C3=C2C(=O)c2ccccc23)c1F (stereo not shown) [Compound 617]: < 100 nM

Attention now shifts to the item below.
Exercise: Please report the recorded IC50 for O=C1NC2=C(C(=O)c3ccccc32)C(c2cccc(OCC3CC3)c2)N1 (stereo not shown) [Compound 422] .
Solution: 100 to 500 nM
